Data provenance: patent US9926585B2

- Test system: ginsenoside glycosidase MT619
- EXPERIMENTAL PROTOCOL: Effects of metals and chemical reagents on MT619 activity (residual activity, pNPG substrate)
- Type: biochemical, Microbacterium testaceum
- CONDITION NOTES: 10 mM reagent, 37° C. for 30 minutes, pNPG substrate; residual activity as percentage of activity without the compounds
Reported Relative activity (%) is given for each of the following compounds.

{"COMPOUND": "OCCS", "Relative activity (%)": "94 ± 2%"}
{"COMPOUND": "[Cl-].[K+]", "Relative activity (%)": "95.3 ± 1.1%"}
{"COMPOUND": "[Cl-].[Na+]", "Relative activity (%)": "128.1 ± 3.7%"}
{"COMPOUND": "CCCCCCCCCCCCOS(=O)(=O)[O-].[Na+]", "Relative activity (%)": "80.6 ± 6.1%"}
{"COMPOUND": "[Ca+2].[Cl-].[Cl-]", "Relative activity (%)": "132.8 ± 2.4%"}
{"COMPOUND": "[Cl][Mn][Cl]", "Relative activity (%)": "59.9 ± 2.6%"}
{"COMPOUND": "[Cl-].[Cl-].[Mg+2]", "Relative activity (%)": "112.7 ± 4.1%"}
{"COMPOUND": "O[C@H](CS)[C@H](O)CS (racemic)", "Relative activity (%)": "79.6 ± 1.6%"}
